System: antiphenamacril mAb
Test: ic-ELISA for sensitivity and specificity of the mAb
Format: binding, Balb/c mice
Conditions: ic-ELISA, standards in 10% methanol-PBS
experimentalEndpoint: IC50

[
  {
    "molecule": "CCOC(=O)C(C#N)=C(N)c1ccccc1 [Phenamacril, 2-cyano-3-amino-3-phenylacrylic acetate]",
    "IC50": "17.46 ng/mL"
  },
  {
    "molecule": "COC(=O)N(OC)c1ccccc1COc1ccn(-c2ccc(Cl)cc2)n1",
    "IC50": ">5,000 ng/mL"
  },
  {
    "molecule": "COc1c(F)c(F)c(C(=O)NCc2ncc(C(F)(F)F)cc2Cl)c(F)c1F [Fluopimomide]",
    "IC50": ">5,000 ng/mL"
  },
  {
    "molecule": "CO/C=C(/C(=O)OC)c1ccccc1Oc1cc(Oc2ccccc2C#N)ncn1",
    "IC50": ">5,000 ng/mL"
  }
]

Continue with the molecule presented below.
# value of IC50, antiphenamacril mAb, item CO/C=C(/C(=O)OC)c1ccccc1COc1cccc(C(F)(F)F)n1 = >5,000 ng/mL
